Test: Neurotoxicity (muscle uncoordination), rotating bar (FR)
Set-up: species or system mice (male CFLP (LATI))
Conditions: mouse, in vivo, po; rotating bar 12/minute, 120 seconds, 1 hour after administration; read-out: Neurotox. FR (rotating bar) ED50
Description: The compound to be tested was suspended in 2 percent aqueous Tween 80 (polyoxyethylene sorbitane monolaurate) solution and it was orally administered to the animals through a bougie in a dose of 30 mg/kg when the anticonvulsive activity was tested, while in a dose of 120 mg/kg when the neurotoxic activity was examined. The effect triggered was measured after 1 hour of the administration. Male CFLP (LATI) mice having a weight of 18 to 22 g were used in the tests. […]
MEASURED QUANTITY: TD50 at 1 h (mg/kg)
Give a bare numeral; the unit mg/kg is implied.

Recorded TD50 at 1 h of CC(=O)N1OCC(=O)NC1c1ccccc1 (stereo not shown) [Compound K2, reference compound] , please.
130

###

test: Neurotoxicity (muscle uncoordination), rotating bar (FR); design: species or system mice (male CFLP (LATI)); conditions: mouse, in vivo, po
MEASURED QUANTITY: TD50 at 1 h
Please give the number followed by its unit.

Recorded TD50 at 1 h of O=C1NC(=O)C(c2ccccc2)(c2ccccc2)N1 [Compound K1, Diphenyl hydantoin, reference compound] , please.
47.7 mg/kg

###

Give measured ED50 for each item. Keep answers brief.
tested on: Male CFLP (LATI) mice; assay: Spasm stimulated by Pentetrazole (PTT); type: in vivo; conditions: Mus musculus, po, 1 h, read-out: Anticonvulsive activity PTT TE (tonic extensoric spasm) ED50
Give a bare numeral; the unit mg/kg is implied.

Recorded ED50 of CC(=O)N1O[C@H](C)C(=S)N[C@@H]1c1ccccc1C (relative stereo) , please.
4.3

Next entry: CC(=O)N1O[C@H](C)C(=S)N[C@@H]1c1ccccc1 (relative stereo) [A]
6.1

Next entry: CC(=O)N1O[C@H](C)C(=S)N[C@@H]1c1ccc(N(C)C)cc1 (relative stereo)
9.9

Next entry: CC(=O)N1O[C@H](C)C(=S)N[C@@H]1c1ccccc1 [B]
12.6

Next entry: CC(=O)N1OCC(=S)NC1c1ccccc1 (stereo not shown)
16.6

Next entry: CC(=O)N1OCC(=O)NC1c1ccccc1 (stereo not shown) [Compound K2, reference compound]
13.4

Next entry: CC[C@H]1ON(C(C)=O)[C@@H](c2ccccc2)NC1=S (relative stereo)
15.4
